// provenance: the supplement of paper PMC6555819

# Test system: FXR:RXRa (NR concentration 270 nM, RXRa partner concentration 90 nM)
# protocol-summary: PBM binding z-score (relative to random genomic background probes); higher = stronger binding; sequences stand for … in GC…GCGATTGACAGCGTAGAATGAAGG
List of PBM binding z-score values.

| sequence-data | PBM binding z-score |
| --- | --- |
| GCTATTTGTTGAAAGGGCAACCGAATGATTCTCG | 0.484 |
| GCGACTGGGGCAAAGCAGGGTACCATAAGGTTGG | -0.153 |
| CGTACTAGGTCATTGACAGGACAGTGAATAGTAA | 4.65 |
| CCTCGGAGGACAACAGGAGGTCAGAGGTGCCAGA | 1.07 |
| CGTCCCAGGTCAGCAGGTCAGTGAAAGCGACGTG | 3.56 |
| CGTCCAAGGTCATAGGAGGTTAGTGAAGACAGAT | 7.23 |
| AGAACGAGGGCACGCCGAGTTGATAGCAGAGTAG | 0.906 |
| CCTAGTTGGTCAAGGTCACACACGCTATAGGTAC | 4.71 |
| CCTAACAGGCCAGGGTCACTCAAGCATTTCGCTT | 2.05 |
| ATCTCTAGGTAAGACTCAGTTCAGAGAAGAACGC | 0.455 |
| CAAACTAGGTCACAGGTCAAAGTCGAGCCAACCA | 6.7 |
| CCTACTGGGCCATAGGTCATTGATTCCAATGCTC | 1.76 |

* * *

# Tested on: PPARg DBDmut:RXRa IVT, anti-PPARg (DBD mutation: PPARg1 K132A/R137A, NR concentration 270 nM, RXRa partner concentration 90 nM)
# protocol-summary: PBM binding z-score (relative to random genomic background probes); higher = stronger binding; sequences stand for … in GC…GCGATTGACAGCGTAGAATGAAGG

| sequence-data | PBM binding z-score |
| --- | --- |
| TAGCCTATGTCATTGGGCCAGTATAGTACGCATC | 0.11 |
| ACTTACGGGTCAACGAGGTTATAACACGCGTATA | 3.33 |
| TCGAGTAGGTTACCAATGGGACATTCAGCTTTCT | -0.217 |
| CCTACTGGGCCAAAAAGGTCGTTGATGCCGATAA | -0.0977 |
| ACAGACAGGTGATGAATGTAACTCAGGCTATCAT | 0.806 |
| ATCGAAAGGTCGAGAGGTGAGTATACAGAAAGGC | 0.777 |
| CGTCGAAGGTCAAGGTCAGTGAAAGAGACTCGAA | 0.183 |
| GGAACGAGGGTATTCGAGTTGATAGCATGGCGAT | -0.0387 |
| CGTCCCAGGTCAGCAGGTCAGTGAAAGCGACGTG | -0.717 |
| CGTCCAAGGTCAAAGCTAGGTCAGTGAAAGCATT | 0.45 |
| TTACCAAGGTGAAGCTCGTTGATCCCTCTGTAGA | -0.257 |
| CAAACTAGGTCACAGAGGTCTAAGTCCGTGCGTA | 1.68 |
| AGTCAAAGTTCATCTAGGTAACGGAAGATATGCT | 1.91 |
| AGTCAAAGTTCACCTAGGTAACGTAAGATATGCT | 1.35 |
| CCTTACGGGTCCCGAGGTTATAGCACGACGAGCG | -0.471 |
| TTACCAAGGTGAGCTGAAGTCGTTGATCCAACTC | -0.768 |
| CGAACTATGTCATCCAGGACAGTGAATACATTGA | 1.29 |
| TCTTGCAGATCAATAGAGGTTAAGAAAGTGCGCT | 0.336 |
| TCTGCTAGGTCAACGATGGTCCGCTAATCTGCTA | -0.429 |
| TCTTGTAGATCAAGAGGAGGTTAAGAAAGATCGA | 0.0065 |
| AGAACGAGGGCACGCTCAGTTGATAGCAGAGTAG | 0.654 |
| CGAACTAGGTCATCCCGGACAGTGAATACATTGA | 3.25 |
| TTACCAAGCTGAAGGTCGTTGATCCCTCTGTAGA | -1.71 |
| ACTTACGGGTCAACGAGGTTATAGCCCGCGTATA | 0.579 |
| TCTTGTAGATCATAGGTTAAGAAAGCCGAAGCCT | 0.499 |
| CCTACTGGGCCACGAAGGGTCATTGATTCAGTGA | -0.0977 |
